Value source: paper PMC10397247

# targetUnderTest: T1, N5-AA
# T1 chain: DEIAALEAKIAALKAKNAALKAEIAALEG
# assayText: two-hybrid library CCmax;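 further: natural log of median RNA to DNA barcode read ratio; higher means stronger binding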
# experimentalContext: mean of both orientations
propertyLabel: interaction score

DKIAALKAKIAALKAEIAALEAENAALEG [4H2883-AA] :: 0.696

[I] DEIAALEAEIAALEAKIAALKAKNAALKG [4H48-AA]
[II] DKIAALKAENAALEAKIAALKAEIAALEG [4H2729-AA]
[III] DEIAALEAKNAALKAEIAALEAKIAALKG [4H454-AA]
Ranking field: interaction score; order: falling. Submit the labels in the order that the ranking request calls for.
I, II, III
(I: 0.994, II: 0.643, III: 0.301)
